# Target desc: human APJ receptor (Homo sapiens, UniProt P35414)
# Construct: expressed in transfected cells
# Sequence (P35414 whole entry): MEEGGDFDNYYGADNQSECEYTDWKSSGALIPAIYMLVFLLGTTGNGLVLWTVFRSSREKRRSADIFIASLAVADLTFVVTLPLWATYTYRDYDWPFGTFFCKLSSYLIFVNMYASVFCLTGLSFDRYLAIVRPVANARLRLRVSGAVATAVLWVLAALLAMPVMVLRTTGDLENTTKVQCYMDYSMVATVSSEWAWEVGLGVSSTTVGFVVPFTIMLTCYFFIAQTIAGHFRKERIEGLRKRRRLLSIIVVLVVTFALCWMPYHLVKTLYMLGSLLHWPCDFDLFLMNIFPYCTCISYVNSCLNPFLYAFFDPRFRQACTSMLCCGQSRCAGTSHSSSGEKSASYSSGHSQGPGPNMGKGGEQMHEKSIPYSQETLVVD
# Protocol notes: Intracellular cAMP accumulation assay (APJ hcAMP, HTRF)
# Assay type: cell-based
# Run conditions: Table 8; HEK293 cells stably expressing human APJ, forskolin-stimulated cAMP; read-out: Human cAMP EC50
Property name: EC50

Molecule: CCNCc1nc(O)c(C(=O)N2CCC(c3ccccc3F)C2)c(O)c1-c1c(OC)cccc1OC (centres unmarked) [Example 151]
EC50: 10 to 100 nM

Attention now shifts to the item below.
For the molecule CCNCc1nc(O)c(C(=O)N2CCC(c3ccccc3F)C2)c(O)c1-c1c(OC)cccc1OC (centres unmarked) [Example 150] , give its reported EC50.
10 to 100 nM
